System: MDA-MB-231 triple-negative breast cancer cells
Assay: MTT cytotoxicity assay, MDA-MB-231
Format: cell-based, human
Conditions: MTT, mean ± SD, read-out: Cytotoxic activity IC50, MDA-MB-231
pIC50: −log10 of the molar value.
measuredQuantity: pIC50

>>> df
                                   compound  numericresult
0  NS(=O)(=O)CCNC(=O)c1ccc(Cl)cc1 [Compound 10, 4-Chloro-N-(2-sulfamoylethyl)benzamide]           4.10
1  O=C(NCCS(=O)(=O)N1CCOCC1)c1ccc(Cl)cc1 [Compound 6]           3.86

----------
Test system: SH-SY5Y human neuroblastoma cells
Experiment: MTT cytotoxicity assay, SH-SY5Y
Type: cell-based
Details: Homo sapiens, SH-SY5Y, mean ± SD, read-out: Cytotoxic activity IC50, SH-SY5Y
Hi! Could you tag entries with IC50 below 80 µM as fulfilled, and those at or above as not fulfilled? Much appreciated.

                                   compound                         measuredon     labelvalue
0  O=C(NCCS(=O)(=O)N1CCOCC1)c1ccccc1 [Compound 5, N-(2-(morpholinosulfonyl)ethyl)benzamide]  SH-SY5Y human neuroblastoma cells  not fulfilled
1  O=C(NCCS(=O)(=O)Nc1ccccc1)c1ccccc1 [Compound 1, N-(2-(N-phenylsulfamoyl)ethyl)benzamide]  SH-SY5Y human neuroblastoma cells  not fulfilled
2     Cc1ccc(C(=O)NCCS(=O)(=O)Nc2ccccc2)cc1  SH-SY5Y human neuroblastoma cells      fulfilled
3  COc1ccc(C(=O)NCCS(N)(=O)=O)cc1 [Compound 11, 4-Methoxy-N-(2-sulfamoylethyl)benzamide]  SH-SY5Y human neuroblastoma cells  not fulfilled
4    COc1ccc(C(=O)NCCS(=O)(=O)Nc2ccccc2)cc1  SH-SY5Y human neuroblastoma cells      fulfilled
